molecular target: Adenosine A2a receptor (Homo sapiens, UniProt P29274); construct: expressed in transfected cells; host or cells: CHO cell membranes; assay: Adenosine receptor TR-FRET binding assay, A2a; details: Table 8; displacement of 100 nM CA200645, CHO cell membranes, Cheng and Prusoff
Sequence (P29274 whole entry): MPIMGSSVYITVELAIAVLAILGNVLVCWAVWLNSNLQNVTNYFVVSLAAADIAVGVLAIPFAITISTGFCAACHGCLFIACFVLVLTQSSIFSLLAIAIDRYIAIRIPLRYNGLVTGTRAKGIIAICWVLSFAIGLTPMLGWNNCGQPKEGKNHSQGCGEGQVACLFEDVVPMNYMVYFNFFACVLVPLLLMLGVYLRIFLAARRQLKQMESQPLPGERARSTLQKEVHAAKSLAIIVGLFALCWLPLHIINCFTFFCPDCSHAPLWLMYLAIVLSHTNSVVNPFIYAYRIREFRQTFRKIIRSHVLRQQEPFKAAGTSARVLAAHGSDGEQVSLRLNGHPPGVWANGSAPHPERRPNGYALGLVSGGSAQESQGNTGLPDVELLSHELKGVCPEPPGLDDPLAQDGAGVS
pKi: −log10 of the molar value.
QUANTITY: pKi

Sample records with pKi:
Cc1ccccc1CNC(=O)c1cnc(-c2cccc(F)c2)nc1N: 6.82
CCn1ccnc1CNC(=O)c1cnc(-c2cccc(F)c2)nc1N: 7.38
COc1nc(-c2ccco2)nc(N)c1C(=O)NCc1ncccc1C: 8.96
COc1ccccc1CNC(=O)c1cnc(-c2cccc(F)c2)nc1N: 7.57

(a) CCn1ccnc1CNC(=O)c1cnc(-c2ccco2)nc1N
(b) Nc1nc(-c2cccc(F)c2)ncc1C(=O)NCc1cc(F)cc(F)c1
Kindly identify the item with the lower pKi figure among these two: a and b Kindly state the label of the option you pick.
b

###

molecular target: Adenosine A2a receptor (Homo sapiens, UniProt P29274); construct: expressed in transfected cells; host or cells: CHO cell membranes; experiment: Adenosine receptor TR-FRET binding assay, A2a; conditions: Table 8; displacement of 100 nM CA200645, CHO cell membranes, Cheng and Prusoff
QUANTITY: Ki (nM)

Sample records with Ki:
Cc1cccnc1CNC(=O)c1c(N)nc(-c2ccco2)nc1-n1cccn1 [Example 19]: 105
CCOc1cccnc1CNC(=O)c1cnc(-c2cccc(F)c2)nc1N [Example 5.8]: 21
CCOC(=O)c1nnc(-c2ccco2)nc1N [Example 1]: 60
Nc1nc(-c2ccco2)ncc1C(=O)NCc1ccccc1Cl [Example 5.15]: 5.1
Nc1nc(-c2ccco2)ncc1C(=O)NCc1ccc(C(F)(F)F)cc1 [Example 5.28]: 298

(1) Nc1nc(-c2ccco2)ncc1C(=O)NCc1ccc(Cl)cc1Cl [Example 5.19]
(2) Nc1nc(-c2ccco2)ncc1C(=O)NC1CCc2ccccc21 (stereo not drawn) [Example 5.23]
Kindly identify the item with the lower Ki figure among these two: 1 and 2 Kindly state the label of the option you pick.
2
(2: 10 nM, 1: 15 nM)

(1) Nc1nc(-c2cccc(F)c2)ncc1C(=O)NCc1c(F)cccc1F [Example 5.4]
(2) Cc1cccnc1CNC(=O)c1cnc(-c2ccccc2F)nc1N [Example 9]
(3) Nc1nc(-c2ccco2)ncc1C(=O)NCc1cccc2cccnc12 [Example 5.25]
// sort entries: Ki, high to low Would you mind listing the labels in the order requested?
2, 1, 3
(2: 312 nM, 1: 50 nM, 3: 1.2 nM)

(I) Nc1nc(-c2cccc(F)c2)ncc1C(=O)NCCc1ccc(O)cc1 [Example 5.7]
(II) Nc1nc(-c2cccc(F)c2)ncc1C(=O)NCc1cccc2cccnc12 [Example 10.13]
(III) Nc1nc(-c2cccc(F)c2)ncc1C(=O)NCc1ccccc1O [Example 10.1]
In this exercise, place the 3 compounds in ascending sequence of their recorded Ki. Would you mind listing the labels in the order requested?
II, III, I

(P) Nc1nc(-c2ccco2)ncc1C(=O)NCc1cc(F)cc(F)c1 [Example 5.17]
(Q) Nc1nc(-c2cccc(F)c2)ncc1C(=O)NCc1ccccc1F [Example 5.1]
Between these two entries, P and Q , state which has the higher Ki. Kindly state the label of the option you pick.
Q
(Q: 90 nM, P: 24 nM)

###

Target: Adenosine A3 receptor (Homo sapiens)
Construct: expressed in transfected cells; host or cells: CHO cell membranes
Sequence (P0DMS8 1-318): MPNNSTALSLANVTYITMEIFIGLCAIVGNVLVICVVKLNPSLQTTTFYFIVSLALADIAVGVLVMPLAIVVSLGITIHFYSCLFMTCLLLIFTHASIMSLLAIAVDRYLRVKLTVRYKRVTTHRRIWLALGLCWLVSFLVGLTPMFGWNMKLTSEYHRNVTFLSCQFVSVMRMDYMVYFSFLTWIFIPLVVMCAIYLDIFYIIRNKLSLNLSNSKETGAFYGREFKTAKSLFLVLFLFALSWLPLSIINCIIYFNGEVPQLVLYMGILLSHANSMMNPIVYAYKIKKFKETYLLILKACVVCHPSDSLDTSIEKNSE
Assay: Adenosine receptor TR-FRET binding assay, A3
Settings: Table 9, further testing; displacement of 100 nM CA200645, CHO cell membranes; read-out: A3 Ki
pKi: −log10 of the molar value.
QUANTITY: pKi

Sample records with pKi:
COc1ccccc1CNC(=O)c1cnc(-c2cccc(F)c2)nc1N: 6.64
CCCOc1nc(-c2ccco2)nc(N)c1C(=O)NCc1ncccc1C: 7.74
Cc1cccnc1CNC(=O)c1c(N)nc(-c2ccco2)nc1OCCF: 7.82

(a) Cc1cccnc1CNC(=O)c1c(N)nc(-c2ccco2)nc1OC[C@@H](C)O
(b) CC(=O)NCCOc1nc(-c2ccco2)nc(N)c1C(=O)NCc1ncccc1C
Between these two entries, a and b , state which has the higher pKi. Kindly state the label of the option you pick.
a

###

Protein target, amino acids: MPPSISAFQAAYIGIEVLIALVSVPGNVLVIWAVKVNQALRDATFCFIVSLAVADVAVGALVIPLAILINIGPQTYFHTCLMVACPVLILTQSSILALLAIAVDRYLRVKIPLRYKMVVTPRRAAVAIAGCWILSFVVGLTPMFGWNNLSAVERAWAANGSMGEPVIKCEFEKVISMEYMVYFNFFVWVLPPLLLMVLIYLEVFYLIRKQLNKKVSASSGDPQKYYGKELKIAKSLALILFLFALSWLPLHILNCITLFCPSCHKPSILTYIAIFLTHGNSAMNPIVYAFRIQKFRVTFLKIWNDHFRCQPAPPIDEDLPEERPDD
pKi: −log10 of the molar value.
QUANTITY: pKi

Cc1cccnc1CNC(=O)c1c(N)nc(-c2ccco2)nc1OCCCO: 8.12

(I) CCn1ccnc1CNC(=O)c1cnc(-c2cccc(F)c2)nc1N
(II) Nc1nc(-c2cccc(F)c2)ncc1C(=O)NCc1cccc(F)c1
(III) COCC(C)Oc1nc(-c2ccco2)nc(N)c1C(=O)NCc1ncccc1C (stereo not shown)
In this exercise, place the 3 compounds in ascending sequence of their recorded pKi. Would you mind listing the labels in the order requested?
II, I, III
